STUDY TARGET: Phosphatidylinositol 4,5-bisphosphate 3-kinase catalytic subunit gamma isoform (Homo sapiens, UniProt P48736)
Sequence (P48736 whole entry, canonical isoform): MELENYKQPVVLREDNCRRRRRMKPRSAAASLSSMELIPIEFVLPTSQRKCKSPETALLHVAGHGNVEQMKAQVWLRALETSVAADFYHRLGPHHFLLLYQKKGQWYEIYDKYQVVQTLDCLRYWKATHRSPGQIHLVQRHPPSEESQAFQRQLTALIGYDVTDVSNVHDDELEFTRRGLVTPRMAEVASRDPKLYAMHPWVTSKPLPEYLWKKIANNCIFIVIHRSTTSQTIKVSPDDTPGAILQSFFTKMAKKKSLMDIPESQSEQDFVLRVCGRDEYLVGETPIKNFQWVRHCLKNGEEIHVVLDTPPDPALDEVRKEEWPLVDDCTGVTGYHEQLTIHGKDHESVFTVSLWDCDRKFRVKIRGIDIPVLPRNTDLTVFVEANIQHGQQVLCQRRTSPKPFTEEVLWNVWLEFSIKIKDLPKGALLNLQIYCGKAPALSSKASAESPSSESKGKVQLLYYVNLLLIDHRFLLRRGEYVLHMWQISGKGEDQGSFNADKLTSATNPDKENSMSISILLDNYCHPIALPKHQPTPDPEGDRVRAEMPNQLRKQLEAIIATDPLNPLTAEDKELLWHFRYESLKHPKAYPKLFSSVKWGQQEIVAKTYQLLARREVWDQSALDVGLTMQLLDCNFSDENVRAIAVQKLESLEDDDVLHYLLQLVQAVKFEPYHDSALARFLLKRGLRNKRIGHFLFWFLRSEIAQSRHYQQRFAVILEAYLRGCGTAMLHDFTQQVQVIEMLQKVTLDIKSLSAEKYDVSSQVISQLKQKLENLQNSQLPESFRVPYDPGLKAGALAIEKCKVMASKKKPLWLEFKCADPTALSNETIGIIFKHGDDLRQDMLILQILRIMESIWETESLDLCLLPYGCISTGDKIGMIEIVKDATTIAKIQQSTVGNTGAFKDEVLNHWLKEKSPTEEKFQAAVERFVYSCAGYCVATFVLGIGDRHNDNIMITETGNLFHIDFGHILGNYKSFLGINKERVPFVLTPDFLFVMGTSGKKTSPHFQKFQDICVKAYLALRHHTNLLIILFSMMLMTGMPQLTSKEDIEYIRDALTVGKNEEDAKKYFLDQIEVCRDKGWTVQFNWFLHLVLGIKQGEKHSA
MEASURED ATTRIBUTE: IC50 (nM)
The figure you give is taken to be in nM; do not add the unit.

Value of IC50 reported for the compound "CC(=O)Nc1nc(C)c(-c2csc(Nc3cccc(C(=O)O)c3)n2)s1" is 5

----------
Below, each of the compounds is paired with its reported IC50 value.
STUDY TARGET: Phosphatidylinositol 4,5-bisphosphate 3-kinase catalytic subunit gamma isoform (Homo sapiens, UniProt P48736)
TEST DESCRIPTION: Inhibition of human PI3Kgamma using phosphatidylinositol as substrate and [33gammaP]ATP after 2 hrs by scintillation counting
Just the number in nM, nothing appended.

# COMPOUND, UNIT NAME, IC50
records = [
    ("CC(=O)Nc1nc(C)c(-c2cnc(N3CCOCC3)o2)s1", "nM", 24),
    ("CC(=O)Nc1nc(C)c(-c2cnc(Nc3ccc(Cl)nc3)o2)s1", "nM", 24),
    ("CC(=O)Nc1nc(C)c(-c2cnc(N3CCCC(O)C3)o2)s1 (stereo not given)", "nM", 14),
    ("CSc1ncc(-c2sc(NC(C)=O)nc2C)o1", "nM", 22),
    ("CC(=O)Nc1nc(C)c(-c2cnc(S(C)(=O)=O)o2)s1", "nM", 12),
]

# IC50 (compound: "CC(=O)Nc1nc(C)c(-c2cnc(Sc3cccnc3)o2)s1" ) is 16

For reference, reported IC50 for "CC(=O)Nc1nc(C)c(-c2cnc(Cc3cccc(C(=O)O)c3)o2)s1" stands at 223

Item: "CC(=O)Nc1nc(C)c(-c2cnc(Cc3cccnc3)o2)s1" | IC50: 95

Value of IC50 reported for the compound "CC(=O)Nc1nc(C)c(-c2cnc(C(C)(C)C)o2)s1" is 3

----------
STUDY TARGET: Phosphatidylinositol 4,5-bisphosphate 3-kinase catalytic subunit alpha isoform (Homo sapiens, UniProt P42336)
Sequence (P42336 whole entry, canonical isoform): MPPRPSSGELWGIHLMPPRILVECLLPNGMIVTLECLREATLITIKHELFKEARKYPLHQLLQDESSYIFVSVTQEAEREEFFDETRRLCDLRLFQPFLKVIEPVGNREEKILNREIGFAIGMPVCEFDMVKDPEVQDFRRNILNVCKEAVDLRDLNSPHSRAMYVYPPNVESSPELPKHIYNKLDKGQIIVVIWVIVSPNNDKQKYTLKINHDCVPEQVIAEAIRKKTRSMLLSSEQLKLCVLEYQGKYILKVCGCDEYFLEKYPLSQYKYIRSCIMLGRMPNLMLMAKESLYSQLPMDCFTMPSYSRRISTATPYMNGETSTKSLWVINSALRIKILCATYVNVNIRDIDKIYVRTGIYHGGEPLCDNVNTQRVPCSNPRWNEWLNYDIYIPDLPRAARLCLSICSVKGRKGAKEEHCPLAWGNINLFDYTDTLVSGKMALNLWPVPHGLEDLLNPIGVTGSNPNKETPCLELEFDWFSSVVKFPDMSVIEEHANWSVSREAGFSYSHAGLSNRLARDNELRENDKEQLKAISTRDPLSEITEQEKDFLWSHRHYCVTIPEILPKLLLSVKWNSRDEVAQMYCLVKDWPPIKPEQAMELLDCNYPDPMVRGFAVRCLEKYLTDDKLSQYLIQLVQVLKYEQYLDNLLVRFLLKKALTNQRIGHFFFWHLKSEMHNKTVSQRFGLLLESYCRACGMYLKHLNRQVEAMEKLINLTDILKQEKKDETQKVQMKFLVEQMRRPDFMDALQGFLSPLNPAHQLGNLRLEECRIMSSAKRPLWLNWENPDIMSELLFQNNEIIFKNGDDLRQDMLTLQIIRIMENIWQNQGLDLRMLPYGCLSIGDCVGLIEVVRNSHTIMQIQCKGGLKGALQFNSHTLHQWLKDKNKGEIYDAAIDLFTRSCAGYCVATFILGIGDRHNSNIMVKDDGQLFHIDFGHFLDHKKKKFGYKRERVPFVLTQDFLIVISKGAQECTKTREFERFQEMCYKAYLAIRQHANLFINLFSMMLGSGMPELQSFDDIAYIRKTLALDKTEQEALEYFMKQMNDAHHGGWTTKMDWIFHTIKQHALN
TEST DESCRIPTION: Inhibition of human PI3Kalpha using phosphatidylinositol as substrate and [33gammaP]ATP after 2 hrs by scintillation counting
Some molecules, each annotated with its measured IC50.
Return type: number; implicit unit nM.

"CC(=O)Nc1nc(C)c(-c2cnc(S(C)(=O)=O)o2)s1" has a reported IC50 of 195

Summary for this molecule, "CC(=O)Nc1nc(C)c(-c2cnc(CC(F)(F)F)o2)s1" : IC50 is 43

response.value for "CC(=O)Nc1nc(C)c(-c2cnc(-c3cccnc3)o2)s1" (field: IC50) = 46

Lab note: measured IC50 of "CC(=O)Nc1nc(C)c(-c2cnc(Nc3cccc(C(=O)O)c3)o2)s1" was 328

----------
Parameter: pIC50. Scope: all listed entries.
STUDY TARGET: Phosphatidylinositol 4,5-bisphosphate 3-kinase catalytic subunit gamma isoform (Mus musculus, UniProt Q9JHG7)
Sequence (Q9JHG7 whole entry, canonical isoform): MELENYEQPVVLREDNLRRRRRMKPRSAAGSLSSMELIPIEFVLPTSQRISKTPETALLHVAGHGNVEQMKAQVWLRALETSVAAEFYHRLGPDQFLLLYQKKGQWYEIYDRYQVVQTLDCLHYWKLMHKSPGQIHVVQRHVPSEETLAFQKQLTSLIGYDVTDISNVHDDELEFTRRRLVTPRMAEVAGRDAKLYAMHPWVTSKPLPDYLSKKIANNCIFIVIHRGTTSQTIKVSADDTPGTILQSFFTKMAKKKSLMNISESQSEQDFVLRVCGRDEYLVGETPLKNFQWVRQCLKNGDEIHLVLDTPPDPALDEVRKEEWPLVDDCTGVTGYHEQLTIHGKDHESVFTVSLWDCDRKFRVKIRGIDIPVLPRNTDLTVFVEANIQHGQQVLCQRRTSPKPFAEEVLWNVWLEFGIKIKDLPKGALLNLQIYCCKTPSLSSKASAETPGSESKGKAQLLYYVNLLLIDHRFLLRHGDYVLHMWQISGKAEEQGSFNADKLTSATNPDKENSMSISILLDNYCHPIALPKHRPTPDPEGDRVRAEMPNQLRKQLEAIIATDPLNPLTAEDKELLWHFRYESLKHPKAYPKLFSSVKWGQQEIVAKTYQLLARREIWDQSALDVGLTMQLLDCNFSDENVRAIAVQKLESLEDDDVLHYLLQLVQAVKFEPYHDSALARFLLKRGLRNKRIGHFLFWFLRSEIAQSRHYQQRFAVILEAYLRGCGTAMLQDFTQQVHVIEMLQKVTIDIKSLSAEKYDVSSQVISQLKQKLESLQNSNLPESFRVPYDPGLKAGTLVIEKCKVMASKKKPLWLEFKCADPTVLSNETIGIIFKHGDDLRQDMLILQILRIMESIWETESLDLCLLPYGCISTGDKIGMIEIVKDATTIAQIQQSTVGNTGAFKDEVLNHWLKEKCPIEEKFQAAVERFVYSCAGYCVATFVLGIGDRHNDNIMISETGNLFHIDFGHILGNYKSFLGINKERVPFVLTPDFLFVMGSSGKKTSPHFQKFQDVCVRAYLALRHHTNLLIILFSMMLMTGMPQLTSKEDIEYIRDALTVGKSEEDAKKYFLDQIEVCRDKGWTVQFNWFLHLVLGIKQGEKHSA
TEST DESCRIPTION: Inhibition of PI3Kgamma in mouse RAW264.7 cells assessed as inhibition of C5a-induced PKB/Akt phosphorylation incubated for 30 mins prior to C5a-induction measured after 5 mins by immunostaining method
Note: pIC50 values are expressed as the negative base-10 logarithm of concentration in M.

Please review the entries below; each comes with its answer.
# COMPOUND, OBSERVED
data = [
    ("CC(=O)Nc1nc(C)c(-c2cnc(N3CCOCC3)o2)s1", 6.22),
    ("CSc1ncc(-c2sc(NC(C)=O)nc2C)o1", 6.49),
    ("CC(=O)Nc1nc(C)c(-c2cnc(N(C)C)o2)s1", 5.91),
    ("CC(=O)Nc1nc(C)c(-c2cnc(Nc3cccnc3)o2)s1", 6.37),
    ("CC(=O)Nc1nc(C)c(-c2cnc(Oc3cccnc3)o2)s1", 5.78),
]

Just so you know, measured pIC50 for "CC(=O)Nc1nc(C)c(-c2cnc(Nc3ccc(Cl)nc3)o2)s1" came out at 5.98

Given item CC(=O)Nc1nc(C)c(-c2cnc(N3CCCC(O)C3)o2)s1 (stereo not given) , the value recorded as its pIC50 is 6.63

Lab note: measured pIC50 of "CC(=O)Nc1nc(C)c(-c2cnc(S(C)(=O)=O)o2)s1" was 6.65

pIC50 reading for "CC(=O)Nc1nc(C)c(-c2cnc(C(C)(C)O)o2)s1" : 6.43

// pIC50 value for "CC(=O)Nc1nc(C)c(-c2cnc(Sc3cccnc3)o2)s1" : 6.55

// "CC(=O)Nc1nc(C)c(-c2cnc(C(C)(C)C)o2)s1" : pIC50 value = 6.95

Lab note: "CC(=O)Nc1nc(C)c(-c2cnc(CC(F)(F)F)o2)s1" gave pIC50 of 7.06

Field pIC50 (entry "CC(=O)Nc1nc(C)c(-c2cnc(-c3cccnc3)o2)s1" ) reads 7.23
